condition_parameters: in ethanol, 318.15 K
assay_metric: solubility (mole fraction)

COCCOC(=O)C1=C(C)NC(C)=C(C(=O)OC(C)C)C1c1cccc([N+](=O)[O-])c1 (stereo unspecified)	0.034

* * *

condition_parameters: in n-pentanol, 308.15 K
assay_metric: solubility (mole fraction)

COCCOC(=O)C1=C(C)NC(C)=C(C(=O)OC(C)C)C1c1cccc([N+](=O)[O-])c1 (stereo unspecified)	0.0162

* * *

condition_parameters: in ethyl formate, 293.15 K
assay_metric: solubility (mole fraction)

COCCOC(=O)C1=C(C)NC(C)=C(C(=O)OC(C)C)C1c1cccc([N+](=O)[O-])c1 (stereo unspecified)	0.00218
